Target: T1, CD123-his-biotin抗原 (Homo sapiens (Human), UniProt P26951 19-305, biotin label (site not stated))
T1 construct: Bought from SinoBiological and biotin-labelled; also called CD123-Biotin; CD123抗原; not shown: his tag
T1 sequence: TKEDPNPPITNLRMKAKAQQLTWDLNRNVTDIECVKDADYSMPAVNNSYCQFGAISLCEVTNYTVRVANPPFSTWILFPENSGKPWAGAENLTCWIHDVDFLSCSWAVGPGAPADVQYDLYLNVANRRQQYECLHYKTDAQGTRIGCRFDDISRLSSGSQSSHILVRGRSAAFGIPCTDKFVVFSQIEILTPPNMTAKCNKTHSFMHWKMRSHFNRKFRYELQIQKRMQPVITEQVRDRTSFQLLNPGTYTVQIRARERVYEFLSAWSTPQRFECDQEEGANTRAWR
Experiment: BLI (Octet RED96), CD123-Biotin on AR2G sensor, scFv periplasmic extract as analyte
Set-up: unit not given here
PARAMETER MEASURED: 响应
// response body must contain only the number

QUERY: Would you kindly share the measured 响应 for 2D2 (scFv, V domains shown, also called 抗体2D2) VH: QVQLQQPGAELVRPGASVKLSCKASGYKFQSYWMNWVKQRPDQGLEWIGRIDPYDSETHYNQKFKDKAILTVDKSSSTAYMQLSSLTSEDSAVYYCARGNWDDYWGQGTTLTVSS VL: DVQITQSPSYLAASPGETITINCRASKSISKDLAWYQEKPGKTNKLLIYSGSTLQSGIPSRFSGSGSGTDFTLTISSLEPEDFAMYYCQQHNKYPYTFGGGTKLEIK ?
RESULT: 0.145
